Test: Solvent solubility screen for Compound 1
Format: physicochemical
Details: organic solvent or mixture, thermodynamic from solid; Dimethylsulfoxide; crystalline Compound 1 (Form 1); read-out: Approximate Solubility
experimental endpoint: solubility (mg/mL)
Give just the numeric value; mg/mL need not be written.

Inquiry: Form field: reported solubility of O=C(OC(C(F)(F)F)C(F)(F)F)N1CCN(Cc2ccc(C(F)(F)F)cc2N2CCCC2)CC1
Reply text: 50

* * *

Test: Solvent solubility screen for Compound 2
Assay type: physicochemical
Conditions: 40 °C, organic solvent or mixture, thermodynamic from solid; Methylethyl ketone; amorphous HCl salt; read-out: Approximate Solubility
experimental endpoint: solubility
The reply must contain the numeric value and, after it, the unit.

Inquiry: Form field: reported solubility of Cl.O=C(OC(C(F)(F)F)C(F)(F)F)N1CCN(Cc2ccc(C(F)(F)F)cc2N2CCCC2)CC1
Reply text: 28 mg/mL

* * *

Assay: Solvent solubility screen for Compound 1
Type: physicochemical
Settings: organic solvent or mixture, thermodynamic from solid; tert-Amyl alcohol; crystalline Compound 1 (Form 1); read-out: Approximate Solubility
experimental endpoint: solubility (mg/mL)
Give just the numeric value; mg/mL need not be written.

Inquiry: Form field: reported solubility of O=C(OC(C(F)(F)F)C(F)(F)F)N1CCN(Cc2ccc(C(F)(F)F)cc2N2CCCC2)CC1 [Compound 1]
Reply text: 69

* * *

Test: Solvent solubility screen for Compound 2
Type: physicochemical
Conditions: 40 °C, organic solvent or mixture, thermodynamic from solid; Anisole; amorphous HCl salt; partial dissolution; read-out: Approximate Solubility
experimental endpoint: solubility

Inquiry: Form field: reported solubility of Cl.O=C(OC(C(F)(F)F)C(F)(F)F)N1CCN(Cc2ccc(C(F)(F)F)cc2N2CCCC2)CC1 [Compound 2]
Reply text: < 5 mg/mL

* * *

Test: Solvent solubility screen for Compound 1
Type: physicochemical
Conditions: organic solvent or mixture, thermodynamic from solid; Toluene; crystalline Compound 1 (Form 1); read-out: Approximate Solubility
experimental endpoint: solubility

Inquiry: Form field: reported solubility of O=C(OC(C(F)(F)F)C(F)(F)F)N1CCN(Cc2ccc(C(F)(F)F)cc2N2CCCC2)CC1
Reply text: > 202 mg/mL

* * *

Assay: Aqueous solubility assessment
Format: physicochemical
Details: thermodynamic from solid; slurry in deionised water, ca. 24 hours, ambient (ca. 22° C.); initial pH 1.87, final pH 1.68
experimental endpoint: solubility at 24 h (µg/mL)
Give just the numeric value; µg/mL need not be written.

Inquiry: Form field: reported solubility at 24 h of Cl.O=C(OC(C(F)(F)F)C(F)(F)F)N1CCN(Cc2ccc(C(F)(F)F)cc2N2CCCC2)CC1
Reply text: 500

* * *

Assay: Solvent solubility screen for Compound 2
Type: physicochemical
Details: 40 °C, thermodynamic from solid; Water; amorphous HCl salt; read-out: Approximate Solubility
experimental endpoint: solubility

Inquiry: Form field: reported solubility of Cl.O=C(OC(C(F)(F)F)C(F)(F)F)N1CCN(Cc2ccc(C(F)(F)F)cc2N2CCCC2)CC1 [Compound 2]
Reply text: < 5 mg/mL

* * *

Assay: Solvent solubility screen for Compound 2
Assay type: physicochemical
Conditions: 40 °C, organic solvent or mixture, thermodynamic from solid; N-Methyl-2-pyrrolidone; amorphous HCl salt; read-out: Approximate Solubility
experimental endpoint: solubility (mg/mL)
Give just the numeric value; mg/mL need not be written.

Inquiry: Form field: reported solubility of Cl.O=C(OC(C(F)(F)F)C(F)(F)F)N1CCN(Cc2ccc(C(F)(F)F)cc2N2CCCC2)CC1 [Compound 2]
Reply text: 101

The measured values listed here are drawn from patent US11993588B2.
